# assayedTarget: T1, SNTG2, Q9NY99
# T1 sequence (Q9NY99 68-166, limits assumed, looked up): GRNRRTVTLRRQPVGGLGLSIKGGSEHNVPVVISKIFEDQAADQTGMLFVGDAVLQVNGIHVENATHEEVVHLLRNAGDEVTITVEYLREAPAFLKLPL
# assayInfo: holdup assay
# Parameters: key: below the threshold = too weak to quantify, mostly under pKd 3.1 to 4
# experimentalSetup: plain residues with an end cap or a label only (N-terminal biotin on a linker: ado-ado)

{"columns": ["binder", "pKd"],
 "data": [
  ["RGKNRRQSIF [CDK18, Q07002]", "below the threshold"],
  ["PEKVSNTTVV [IGSF5, Q9NSI5]", 3.76],
  ["FHSIKQSTAV [CRHR1, P34998]", 3.6],
  ["KAEEKPPSKV [SCN4B, Q8IWT1]", "below the threshold"],
  ["EAVTVESTSL [SLC22A11, Q9NSA0]", 3.64],
  ["DLLGGGSDSI [TNRC6B, Q9UPQ9]", "below the threshold"],
  ["NISARRFTLC [FAM167B, Q9BTA0]", "below the threshold"],
  ["GSQSQVETEA [FKBP4, Q02790]", "below the threshold"]
]}
